Give inhibition at 100 µM for every item shown.
- System name: PfThrRS (Plasmodium falciparum, UniProt Q8IIA4)
- Construct: made in house; host or cells: E. coli BL21(DE3)
- Sequence (Q8IIA4 21-1013): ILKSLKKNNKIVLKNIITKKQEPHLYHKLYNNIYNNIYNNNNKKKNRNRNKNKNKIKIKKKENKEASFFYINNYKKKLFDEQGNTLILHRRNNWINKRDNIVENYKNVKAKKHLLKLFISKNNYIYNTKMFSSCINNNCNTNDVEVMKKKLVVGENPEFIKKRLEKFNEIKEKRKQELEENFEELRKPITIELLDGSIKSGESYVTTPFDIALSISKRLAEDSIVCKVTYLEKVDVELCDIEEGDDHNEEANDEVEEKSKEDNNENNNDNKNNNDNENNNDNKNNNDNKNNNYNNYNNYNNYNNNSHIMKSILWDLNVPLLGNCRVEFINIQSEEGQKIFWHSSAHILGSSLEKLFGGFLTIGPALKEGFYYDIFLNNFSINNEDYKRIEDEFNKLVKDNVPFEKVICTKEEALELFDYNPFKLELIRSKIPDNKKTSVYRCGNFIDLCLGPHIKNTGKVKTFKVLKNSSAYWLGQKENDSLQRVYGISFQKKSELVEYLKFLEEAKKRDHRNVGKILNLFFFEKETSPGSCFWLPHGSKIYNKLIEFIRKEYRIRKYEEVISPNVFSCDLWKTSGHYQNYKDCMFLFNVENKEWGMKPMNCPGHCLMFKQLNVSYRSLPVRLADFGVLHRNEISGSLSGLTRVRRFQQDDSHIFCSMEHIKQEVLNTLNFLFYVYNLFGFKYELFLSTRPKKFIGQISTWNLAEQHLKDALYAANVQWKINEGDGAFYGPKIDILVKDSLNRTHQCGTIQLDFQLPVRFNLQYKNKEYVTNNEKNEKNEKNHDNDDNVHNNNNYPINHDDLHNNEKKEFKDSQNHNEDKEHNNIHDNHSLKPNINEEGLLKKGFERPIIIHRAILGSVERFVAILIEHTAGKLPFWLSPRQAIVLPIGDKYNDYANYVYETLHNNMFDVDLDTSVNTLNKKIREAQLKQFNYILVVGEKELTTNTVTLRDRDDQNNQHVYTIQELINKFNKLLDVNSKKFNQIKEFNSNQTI
- Experiment: In vitro PfThrRS inhibition assay (aminoacylation activity, ATP consumption by Kinase-Glo luminescence)
- Type: biochemical
- Run conditions: Table SI1, adenosine binding subsite substituent; fraction of PfThrRS inhibited at 100 µM; read-out: ThrRS inhibition @100 µM, %
- Experimental: The bioassay protocol was adapted from the literature. The aminoacylation activity of PfThrRS in the presence of compounds was determined by measuring ATP consumption in the enzymatic reaction by using recombinant PfThrRS and P. falciparum cell extract as a source of t-RNA. ATP consumption was determined by Kinase-Glo® Reagent (Promega Inc.). The luminescence was read on a Tecan Infinite M1000 microplate reader. The inhibitory rate was measured in three independent assays. […]
Answers are plain numbers, in %.

O=C(O)c1cc(S(=O)(=O)Nc2ccc(I)cc2)ccc1O	88
COc1cccc(-c2cccc(NS(=O)(=O)c3ccc(O)c(C(=O)O)c3)c2)c1	80
O=C(O)c1cc(S(=O)(=O)Nc2ccc(Cl)cc2)ccc1O	31

Each compound below has a recorded value; state its inhibition at 100 µM.
1. O=C(O)c1cc(S(=O)(=O)Nc2ccc(Oc3ccccc3)cc2)ccc1O
2. O=C(O)c1cc(S(=O)(=O)Nc2cc(Cl)ccc2Oc2ccccc2)ccc1O

*A*
1. 35
2. 100
